- targetSystem: NDM-1 (Klebsiella pneumoniae, UniProt C7C422)
- Construct: purchased RayBiotech, Inc. 230-00554
- Sequence (C7C422 29-270, looked up, species assumed): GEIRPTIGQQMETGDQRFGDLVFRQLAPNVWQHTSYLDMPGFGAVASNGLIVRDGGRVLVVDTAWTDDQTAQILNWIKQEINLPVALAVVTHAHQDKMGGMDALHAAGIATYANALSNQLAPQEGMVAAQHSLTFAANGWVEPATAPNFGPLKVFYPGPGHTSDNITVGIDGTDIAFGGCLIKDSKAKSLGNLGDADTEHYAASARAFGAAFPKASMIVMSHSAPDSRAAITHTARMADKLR
- assayNotes: β-lactamase inhibition, imipenem hydrolysis
- Format: biochemical
- statedConditions: imipenem substrate; read-out: β-Lactamases, IC50 NDM-1
pIC50: −log10 of the molar value.
# reported pIC50; entries follow
propertyName: pIC50

# compound, result
data = [
    ("CN1CCN(CCOc2c(-c3ccc(F)c(F)c3)oc3cc(O)cc(O)c3c2=O)CC1 [Compound 16]", "< 4.30"),
    ("O=c1c(OCCOCCO)c(-c2ccc(F)c(F)c2)oc2cc(O)cc(O)c12 [Compound 9]", "< 4.30"),
    ("CC(C)(C)C(=O)OCOc1c(-c2ccc(F)c(F)c2)oc2cc(O)cc(O)c2c1=O [Compound 4]", 4.80),
    ("O=c1c(OCCC2CCNCC2)c(-c2ccc(F)c(F)c2)oc2cc(O)cc(O)c12 [Compound 31]", "< 4.30"),
    ("O=c1c(OCCOCCOCCO)c(-c2ccc(F)c(F)c2)oc2cc(O)cc(O)c12 [Compound 10]", "< 4.30"),
    ("O=c1c(OCCN2CCOCC2)c(-c2ccc(F)c(F)c2)oc2cc(O)cc(O)c12 [Compound 20]", "< 4.30"),
    ("O=c1c(OCCc2cccs2)c(-c2ccc(F)c(F)c2)oc2cc(O)cc(O)c12 [Compound 12]", "< 4.30"),
    ("CC(C)(C)CC(=O)Oc1c(-c2ccc(F)c(F)c2)oc2cc(O)cc(O)c2c1=O [Compound 3]", 4.61),
    ("O=c1c(OCCCC2CCCC2)c(-c2ccc(F)c(F)c2)oc2cc(O)cc(O)c12 [Compound 29]", 4.57),
    ("C[N+](C)(CCOc1c(-c2ccc(F)c(F)c2)oc2cc(O)cc(O)c2c1=O)CC(=O)[O-] [Compound 15]", "< 4.30"),
    ("CC(C)CCOc1c(-c2ccc(F)c(F)c2)oc2cc(O)cc(O)c2c1=O [Compound 24]", "< 4.30"),
    ("O=c1c(OCCO)c(-c2ccc(F)c(F)c2)oc2cc(O)cc(O)c12 [Compound 8]", "< 4.30"),
    ("O=c1c(OCCC2CCCCC2)c(-c2ccc(F)c(F)c2)oc2cc(O)cc(O)c12 [Compound 27]", 5.00),
    ("CC(C)(C)CCOc1c(-c2ccc(F)c(F)c2)oc2cc(O)cc(O)c2c1=O [Compound 23]", 4.94),
    ("O=c1c(O)c(-c2ccc(F)c(F)c2)oc2cc(O)cc(O)c12 [Compound 1, 3′,4′-difluoroquercetin]", "< 4.30"),
    ("CN1CCCC1CCOc1c(-c2ccc(F)c(F)c2)oc2cc(O)cc(O)c2c1=O (centres unmarked) [Compound 21]", "< 4.30"),
    ("O=c1c(OCCC2CCCC2)c(-c2ccc(F)c(F)c2)oc2cc(O)cc(O)c12 [Compound 26]", 4.80),
]

====

# reported IC50; entries follow
- targetSystem: VIM-2 (Escherichia coli, UniProt Q5U7L7)
- Construct: Genes encoding OXA-48 (residues 23–265) and VIM-2 (residues 27–266) were custom-synthesized; made in house
- assayNotes: β-lactamase inhibition, nitrocefin hydrolysis
- Format: biochemical
- statedConditions: nitrocefin substrate; read-out: β-Lactamases, IC50 VIM-2

# molecule, limitSign, IC50 (µM)
rows = [
    ("O=c1c(OCCC2CC2)c(-c2ccc(F)c(F)c2)oc2cc(O)cc(O)c12 [Compound 25]", "=", 13.9),
    ("O=c1c(OCCC(F)(F)F)c(-c2ccc(F)c(F)c2)oc2cc(O)cc(O)c12 [Compound 22]", ">", 100),
    ("CN1CCCC1CCOc1c(-c2ccc(F)c(F)c2)oc2cc(O)cc(O)c2c1=O (stereo not shown) [Compound 21]", ">", 100),
    ("O=c1c(OCCN2CCCC2)c(-c2ccc(F)c(F)c2)oc2cc(O)cc(O)c12 [Compound 18]", ">", 100),
    ("O=c1c(OCCC2CCCC2)c(-c2ccc(F)c(F)c2)oc2cc(O)cc(O)c12 [Compound 26]", "=", 9),
    ("CC(C)CCOc1c(-c2ccc(F)c(F)c2)oc2cc(O)cc(O)c2c1=O [Compound 24]", "=", 42.1),
    ("O=c1c(OCC2CCCC2)c(-c2ccc(F)c(F)c2)oc2cc(O)cc(O)c12 [Compound 28]", "=", 7.8),
]
